TEST_SYSTEM: LRRK2[G2019S] (Homo sapiens, UniProt Q5S007, G2019S)
Sequence (Q5S007 whole entry G2019S, the tested form may be a part): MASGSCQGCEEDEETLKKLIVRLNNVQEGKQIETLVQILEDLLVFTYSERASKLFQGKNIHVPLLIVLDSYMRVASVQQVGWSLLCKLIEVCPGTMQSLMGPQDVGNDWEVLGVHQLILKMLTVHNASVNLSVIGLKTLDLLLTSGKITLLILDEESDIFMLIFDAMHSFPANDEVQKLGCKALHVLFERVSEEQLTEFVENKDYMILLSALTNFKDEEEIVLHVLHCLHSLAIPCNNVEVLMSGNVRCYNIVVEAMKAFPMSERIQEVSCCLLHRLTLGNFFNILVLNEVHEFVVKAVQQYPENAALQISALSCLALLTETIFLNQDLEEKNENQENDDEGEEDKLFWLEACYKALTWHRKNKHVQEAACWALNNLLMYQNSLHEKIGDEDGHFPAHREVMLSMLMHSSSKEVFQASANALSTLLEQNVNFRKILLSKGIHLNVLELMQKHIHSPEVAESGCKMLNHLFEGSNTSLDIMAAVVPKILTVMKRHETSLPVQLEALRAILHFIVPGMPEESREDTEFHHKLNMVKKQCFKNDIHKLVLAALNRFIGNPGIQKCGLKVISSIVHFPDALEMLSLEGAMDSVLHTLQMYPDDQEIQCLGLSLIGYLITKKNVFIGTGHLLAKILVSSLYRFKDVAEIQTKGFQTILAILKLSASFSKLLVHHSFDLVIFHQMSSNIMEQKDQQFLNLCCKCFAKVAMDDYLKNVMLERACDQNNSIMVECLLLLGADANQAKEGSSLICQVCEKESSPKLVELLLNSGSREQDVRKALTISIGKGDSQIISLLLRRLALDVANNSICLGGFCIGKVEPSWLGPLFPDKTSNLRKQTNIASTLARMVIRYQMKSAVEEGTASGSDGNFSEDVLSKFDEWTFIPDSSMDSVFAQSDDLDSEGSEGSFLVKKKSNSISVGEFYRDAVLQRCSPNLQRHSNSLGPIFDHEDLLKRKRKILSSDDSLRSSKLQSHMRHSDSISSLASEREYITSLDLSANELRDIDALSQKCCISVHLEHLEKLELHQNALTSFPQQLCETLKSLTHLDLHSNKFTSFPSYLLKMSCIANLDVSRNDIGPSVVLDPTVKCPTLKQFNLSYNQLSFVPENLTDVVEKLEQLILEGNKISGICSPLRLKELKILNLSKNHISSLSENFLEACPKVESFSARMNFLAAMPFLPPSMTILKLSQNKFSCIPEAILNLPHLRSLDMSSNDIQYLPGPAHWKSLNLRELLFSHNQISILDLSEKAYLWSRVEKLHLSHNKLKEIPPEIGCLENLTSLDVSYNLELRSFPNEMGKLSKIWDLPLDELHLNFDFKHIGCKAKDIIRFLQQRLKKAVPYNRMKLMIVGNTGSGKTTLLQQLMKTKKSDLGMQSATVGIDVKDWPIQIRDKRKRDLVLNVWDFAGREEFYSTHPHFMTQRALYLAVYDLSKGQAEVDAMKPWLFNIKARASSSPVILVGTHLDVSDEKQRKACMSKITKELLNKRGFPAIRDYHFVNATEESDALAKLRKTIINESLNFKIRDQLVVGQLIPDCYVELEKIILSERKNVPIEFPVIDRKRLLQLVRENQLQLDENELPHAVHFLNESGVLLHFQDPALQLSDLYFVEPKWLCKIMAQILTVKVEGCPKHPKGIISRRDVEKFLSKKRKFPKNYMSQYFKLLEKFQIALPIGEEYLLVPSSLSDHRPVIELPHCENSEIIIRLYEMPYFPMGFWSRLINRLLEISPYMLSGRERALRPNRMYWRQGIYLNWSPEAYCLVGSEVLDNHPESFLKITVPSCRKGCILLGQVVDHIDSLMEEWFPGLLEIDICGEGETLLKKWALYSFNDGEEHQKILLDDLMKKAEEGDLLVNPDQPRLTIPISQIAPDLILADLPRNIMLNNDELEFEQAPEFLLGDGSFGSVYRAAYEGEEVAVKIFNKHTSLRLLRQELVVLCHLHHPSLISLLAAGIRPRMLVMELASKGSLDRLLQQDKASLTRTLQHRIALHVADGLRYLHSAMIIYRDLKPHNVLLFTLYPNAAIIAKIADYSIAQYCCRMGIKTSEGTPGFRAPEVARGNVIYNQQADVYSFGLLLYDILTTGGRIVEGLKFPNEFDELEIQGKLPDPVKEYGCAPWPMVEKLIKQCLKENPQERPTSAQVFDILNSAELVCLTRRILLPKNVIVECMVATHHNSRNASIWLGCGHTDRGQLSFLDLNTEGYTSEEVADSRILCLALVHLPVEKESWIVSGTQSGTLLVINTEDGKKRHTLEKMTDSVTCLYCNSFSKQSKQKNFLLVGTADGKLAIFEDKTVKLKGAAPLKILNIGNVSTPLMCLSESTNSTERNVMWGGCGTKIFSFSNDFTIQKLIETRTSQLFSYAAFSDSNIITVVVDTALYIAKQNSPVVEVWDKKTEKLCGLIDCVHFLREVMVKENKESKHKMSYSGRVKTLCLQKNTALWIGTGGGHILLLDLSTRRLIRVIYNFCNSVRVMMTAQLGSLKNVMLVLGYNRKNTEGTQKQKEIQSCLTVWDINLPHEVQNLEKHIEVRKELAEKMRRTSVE
PROCEDURE_DETAILS: Cell-based NanoBRET target engagement assay in HEK293 cells transfected with LRRK2 (G2019S)-NanoLuc fusion vector
CONDITION_DETAILS: compound treatment 1 h
Protocol: Example C. Cell-Based NanoBRET Target Engagement Assay in 11EK293 Cells Transiently Transfected with LRRK2 WT- or LRRK2 (G2019S)-Nano Luc Fusion Vector H1EK293 (ATCC) cells were transfected with […] LRRK2 WT or LRRK2 (G2019S) and 9 μg transfection carrier DNA. […] LRRK2 WT and LRRK2 (G2019S) target engagement was measured by NanoBRET assay. […]
pIC50: −log10 of the molar value.
Readings of pIC50 for the listed molecules

These solved cases illustrate the format of a correct answer.
CC1(Oc2ccc3[nH]nc(-c4cc(N5CC(F)C6(CC6)C5)c(=O)n(C5CC5)n4)c3c2)CC1 (stereo not shown) [Compound 59] = ≥ 7.30
C[C@@H]1CN(c2cc(-c3n[nH]c4ccc(OC5(C)CC5)cc34)nn(C3CC3)c2=O)C[C@H](C)O1 [Compound 51] = ≥ 7.30
CC1CCN(c2cc(-c3n[nH]c4ccc(OC(C)C)cc34)cnn2)C1 (stereo not shown) [Compound 3] = ≤ 7.00
CC(C)Oc1ccc2[nH]nc(-c3cc(N4CCOCC4)c(=O)n(C4CC4)n3)c2c1 [Compound 19] = ≥ 7.30
CN1CCN(c2cc(-c3n[nH]c4ccc(OC5(C)CC5)cc34)nn(C)c2=O)CC(F)(F)C1 [Compound 64] = ≥ 7.30
CC(C)Oc1ccc2[nH]nc(-c3cc(N4CCOCC4)c(=O)n(C(C)C)n3)c2c1 [Compound 21] = 7.00 to 7.30
CC(C)N1CCCN(c2cc(-c3n[nH]c4ccc(OC5(C)CC5)cc34)nn(C)c2=O)CC1 [Compound 96] = ≥ 7.30
Cn1nc(-c2n[nH]c3ccc(OC4(C)CC4)cc23)cc(N2CCOCC(CO)C2)c1=O (stereo not shown) [Compound 88] = ≥ 7.30

Lookup: Under LRRK2[G2019S] (Homo sapiens, UniProt Q5S007, G2019S): pIC50 value of Cn1nc(-c2n[nH]c3ccc(OC4(C)CC4)cc23)cc(N2CCCCC(C)(O)C2)c1=O (stereo not shown) [Compound 81] ?
Found: ≥ 7.30

Lookup: Under LRRK2[G2019S] (Homo sapiens, UniProt Q5S007, G2019S): pIC50 value of Cn1nc(-c2n[nH]c3ccc(OC4(C)CC4)cc23)cc(N2CCCC(F)(F)C2)c1=O [Compound 54] ?
Found: ≥ 7.30

Lookup: Under LRRK2[G2019S] (Homo sapiens, UniProt Q5S007, G2019S): pIC50 value of CC1CCN(c2cc(-c3n[nH]c4ccc(OC5(C)CC5)cc34)nn(C)c2=O)CC(C)O1 (stereo not shown) [Compound 70] ?
Found: ≥ 7.30

Lookup: Under LRRK2[G2019S] (Homo sapiens, UniProt Q5S007, G2019S): pIC50 value of Cn1nc(-c2n[nH]c3ccc(OC4(C)CC4)cc23)cc(N2CCC(C(C)(C)O)C2)c1=O (stereo not shown) [Compound 85] ?
Found: ≥ 7.30

Lookup: Under LRRK2[G2019S] (Homo sapiens, UniProt Q5S007, G2019S): pIC50 value of Cn1nc(-c2n[nH]c3ccc(OC4(C)CC4)cc23)cc(N2CCOCC2)c1=O [Compound 27] ?
Found: ≥ 7.30

Lookup: Under LRRK2[G2019S] (Homo sapiens, UniProt Q5S007, G2019S): pIC50 value of Cn1nc(-c2n[nH]c3ccc(OC4(C)CC4)cc23)cc(N2CCCNC(C)(C)C2)c1=O [Compound 67] ?
Found: ≤ 7.00

Lookup: Under LRRK2[G2019S] (Homo sapiens, UniProt Q5S007, G2019S): pIC50 value of CC(C)Oc1ccc2[nH]nc(-c3cnnc(N4CCOCC4)c3)c2c1 [Compound 4] ?
Found: ≥ 7.30

Lookup: Under LRRK2[G2019S] (Homo sapiens, UniProt Q5S007, G2019S): pIC50 value of Cn1nc(-c2n[nH]c3ccc(OC4(C)CC4)cc23)cc(N2CCC(O)C(F)CC2)c1=O (stereo not shown) [Compound 82] ?
Found: ≥ 7.30
